- TEST_NAME: Photo-DSC analysis of various styrene oxides formulated with photoinitiator and diol (Example 6)
- Format: physicochemical
- CONDITION_SET: Tone polyol, Epoxy:Diol 3:1
EXPERIMENTAL_READOUT: ΔH (kJ/Mole EPOXIDE)
Value expressed in kJ/Mole EPOXIDE; do not type the unit.

Known results for compounds:
COc1cc(C2OC2C)ccc1OC(C)=O (centres unmarked) [isoeugenol acetate epoxy, isoeugenol acetate epoxide] | -65.0
CC1OC1c1ccccc1 (stereo not drawn) [beta-methyl styrene epoxy, beta-methyl styrene mono-epoxide] | -54.5
CC(=O)OCC1OC1c1ccccc1 (centres unmarked) [cinnamyl acetate epoxy, cinnamyl acetate epoxide] | -30.8

Now take the following compound into account.
Name the reported ΔH value associated with the compound CC1(c2ccccc2)CO1 (stereo not drawn) [alpha methyl styrene epoxy]
-66.7

* * *

- TEST_NAME: Photo-DSC analysis of various styrene oxides formulated with photoinitiator and diol (Example 6)
- Format: physicochemical
- CONDITION_SET: no diol
EXPERIMENTAL_READOUT: ΔH (kJ/Mole EPOXIDE)
A number alone suffices; assume kJ/Mole EPOXIDE.

Below are worked cases with known answers.
COCC1OC1c1ccccc1 (centres unmarked) [cinnamyl methyl ether epoxy, cinnamyl methyl ether epoxide] | -43.9
COc1cc(C2OC2C)ccc1OC(C)=O (centres unmarked) [isoeugenol acetate epoxy, isoeugenol acetate epoxide] | -15.7
CC1(c2ccccc2)CO1 (centres unmarked) | -53.3
CC(=O)OCC1OC1c1ccccc1 (centres unmarked) [cinnamyl acetate epoxy, cinnamyl acetate epoxide] | 0

Please give the measured ΔH for this molecule: CC1OC1c1ccccc1 (stereo not drawn) [beta-methyl styrene epoxy, beta-methyl styrene mono-epoxide]
-85.4

* * *

- TEST_NAME: Photo-DSC analysis of various styrene oxides formulated with photoinitiator and diol (Example 6)
- Type: physicochemical
- CONDITION_SET: MP-diol, Epoxy:Diol 1:1
EXPERIMENTAL_READOUT: ΔH (kJ/Mole EPOXIDE)
Value expressed in kJ/Mole EPOXIDE; do not type the unit.

Recorded results for 3 compounds are shown here.
CC(=O)OCC1OC1c1ccccc1 (centres unmarked) [cinnamyl acetate epoxy, cinnamyl acetate epoxide] | -27.5
COCC1OC1c1ccccc1 (centres unmarked) [cinnamyl methyl ether epoxy, cinnamyl methyl ether epoxide] | -57.8
CC1(c2ccccc2)CO1 (centres unmarked) | -80.9

Request the reported ΔH associated with CC1OC1c1ccccc1 (stereo not drawn) [beta-methyl styrene epoxy, beta-methyl styrene mono-epoxide]
-102.6
